# assayed target: human glucagon receptor (human, UniProt P47871 26-477)
# Sequence (P47871 26-477): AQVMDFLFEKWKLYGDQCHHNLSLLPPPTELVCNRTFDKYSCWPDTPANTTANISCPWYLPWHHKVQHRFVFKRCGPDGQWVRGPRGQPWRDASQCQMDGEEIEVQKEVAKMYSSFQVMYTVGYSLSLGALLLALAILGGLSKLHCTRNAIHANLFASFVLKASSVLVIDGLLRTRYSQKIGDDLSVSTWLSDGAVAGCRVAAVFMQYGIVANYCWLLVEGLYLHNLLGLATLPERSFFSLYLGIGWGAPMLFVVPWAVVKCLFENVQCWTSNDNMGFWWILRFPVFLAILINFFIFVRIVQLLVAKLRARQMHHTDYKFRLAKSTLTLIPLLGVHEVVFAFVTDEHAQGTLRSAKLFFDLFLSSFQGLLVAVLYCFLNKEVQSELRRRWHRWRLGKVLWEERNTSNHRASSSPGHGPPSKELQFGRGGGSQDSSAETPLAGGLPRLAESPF
# procedure summary: cell-based or functional assay
*1 amine or outer side, *2 acyl side, *3 side chain or, on linkers, in order; H or OH if unused. Where no end group is shown, it is not given here. [ ]: non-standard residue; d: D form. O‑methyl‑L‑homoserine = COCC[C@H](N[*:1])C(=O)[*:2]; Nle = CCCC[C@H](N)C(=O)O; Aib = CC(C)(N)C(=O)O
The label depends only on GCGR EC50: rule met if it is at least 10 nM, rule not met if it is smaller.

INSERT INTO assay_data (binder, discrete_label) VALUES
  ('H[Aib]QGTFTSDYSKYLDSRRAQDFVQWL[Nle]NTKRNRNNIAC(cholesterol)-NH2 [OXM212]', 'rule met'),
  ('HSQGTFTSDYSKYLDSRRAQDFVQWLMNTKRNRNNIAC (not fully specified; D-Ser at position 2; C4 = Cys(cholest-5-en-3-yl{[(2R)-3-amino-2-(amino)-3-oxopropyl]thio}acetate) at position 38; C-terminal amide) [OXM36]', 'rule met');

Entry HXQGTFTSDYSKYLDSRRAQDFVQWLMNTKRNRNNIAK (Aib at position 2; K(palmitoyl) at position 38; C-terminal amide) [OXM177] : is its GCGR EC50 no less than 10 nM? rule not met

Textbook exercise: given the entry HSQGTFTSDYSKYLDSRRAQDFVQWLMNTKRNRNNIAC (D-Ser at position 2; C7 = Cys(Oxa4-cholesterol) at position 38; C-terminal amide) [OXM115] , state whether its GCGR EC50 is greater than or equal to 10 nM. rule not met

Decide: is the reported value of GCGR EC50 for H[Aib]QGTFTSDYSKYLDSRRAQDFVQWL[O‑methyl‑L‑homoserine]NTKRNRNNIAC(cholesterol)-NH2 [OXM213] equal to or greater than 10 nM? rule met
